Attribution: patent US20240317851A1

In this section we review reported Top MFI values for a set of binders.
MEASUREMENT_TARGET: T1, human Claudin 6 (human, UniProt P56747 1-220)
T1 construct: whole, on cells; also called CLDN6
T1 sequence (looked up): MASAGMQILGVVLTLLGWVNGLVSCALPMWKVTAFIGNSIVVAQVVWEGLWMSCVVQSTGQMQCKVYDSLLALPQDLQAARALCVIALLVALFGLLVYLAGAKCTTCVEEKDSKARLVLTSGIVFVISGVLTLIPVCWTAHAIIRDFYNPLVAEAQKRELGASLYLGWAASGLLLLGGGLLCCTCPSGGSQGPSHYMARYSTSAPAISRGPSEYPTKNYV
TEST_METHOD_NOTES: flow cytometry, HEK293/H_CLDN6 cells, Ab titrated from 100 nM

97-C10E1-2-P1.z10 (antibody, V domains shown) VH: QVQLQQSGAEVKKPGASVKVSCKASGYAFTGYTMNWVRQAPGQNLEWIGLSNPYNAGTIYNQKFKGRVTLTVDKSTSTVYMELLSLRSEDTAVYYCARNYYYGSSYAYYYAMDYWGQGTTVTVSS VL: DIVVTQSPSSLSTSVGDRVTITCRSSTGAVTTSNYANWVQEKPGKAFKGLIGGTNNRAPGVPARFSGSLSGDDAALTISSAQPEDFATYFCALWYSNHWVFGGGTKVEIK = 121000
97-C10E1-2-P1.z14 (antibody, V domains shown) VH: QVQLQQSGAEVKKPGASMKISCKASGYAFTGYTMNWVRQAPGQNLEWIGLSNPYNAGTIYNQKFKGRATLTVDKSTSTAYMELLSLRSEDTAVYYCARNYYYGSSYAYYYAMDYWGQGTTVTVSS VL: DAQMTQSPSSLSASVGDRVTITCRSSTGAVTTSNYANWVQQKPGKAFKGLIGGTNNRAPGVPARFSGSLSGTDAALTISSLQPEDFATYFCALWYSNHWVFGGGTKVEIK = 115000

Look at this binder and give its reported Top MFI. 97-C10E1-2-P1.z12 (antibody, V domains shown) VH: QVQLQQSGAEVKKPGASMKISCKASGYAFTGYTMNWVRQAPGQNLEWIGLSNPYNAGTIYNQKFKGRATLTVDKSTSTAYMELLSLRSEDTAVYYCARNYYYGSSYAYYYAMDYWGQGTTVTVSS VL: EAVVTQSPATLSVSPGERATLSCRSSTGAVTTSNYANWVQEKPGQAFRGLIGGTNNRAPGIPARFSGSLSGDEATLTISSLQSEDFAVYFCALWYSNHWVFGGGTKVEIK
107000

Look at this binder and give its reported Top MFI. 97-C10E1-2-P1.z15 (antibody, V domains shown) VH: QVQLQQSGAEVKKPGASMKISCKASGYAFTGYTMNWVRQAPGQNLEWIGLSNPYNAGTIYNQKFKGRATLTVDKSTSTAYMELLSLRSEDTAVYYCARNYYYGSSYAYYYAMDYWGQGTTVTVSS VL: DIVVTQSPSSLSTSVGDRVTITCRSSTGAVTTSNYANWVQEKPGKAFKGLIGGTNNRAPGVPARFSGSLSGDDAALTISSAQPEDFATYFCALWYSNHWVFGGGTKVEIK
128000
